Attribution: paper PMC10587169

# test_protocol: Potentiometric titration, acid dissociation constants
# Format: physicochemical
# run_conditions: aqueous 2.0 M (Na+/H+)ClO4 electrolyte solution, I = 2.0 M (Na+/H+)ClO4 at 20.0 °C; read-out: pKa HL species
What pKa was measured for each of the following?

These recorded examples may help you get a feel for the data.
> print(dat)
                                   molecule  readout.kind  measurement
1  O=C(O)CN(CCN(CCN(CC(=O)O)CC(=O)O)CC(=O)O)CCN(CC(=O)O)CC(=O)O [H6ttha]           pKa         9.48
2  O=C(O)CN(CCN(CC(=O)O)Cc1cccc(C(=O)O)n1)Cc1cccc(C(=O)O)n1 [H4octapa]           pKa         8.41
3  O=C(O)CN(CCN(CC(=O)O)CC(=O)O)CCN(CC(=O)O)CC(=O)O [H5dtpa]           pKa          9.5

Please turn your attention to the following entry.
### Prompt Look up pKa: O=C(O)CN(CCN(CC(=O)O)CC(=O)O)CC(=O)O [H4edta]
### Response 8.81

----------
# test_protocol: Potentiometric titration, acid dissociation constants
# Type: physicochemical
# run_conditions: aqueous 2.0 M (Na+/H+)ClO4 electrolyte solution, I = 2.0 M (Na+/H+)ClO4 at 20.0 °C; read-out: pKa H3L species
What pKa was measured for each of the following?
One number for each entry.

> print(dat)
                    structure.smiles.string  readout.kind  measurement
1  O=C(O)CN(CCN(CCN(CC(=O)O)CC(=O)O)CC(=O)O)CCN(CC(=O)O)CC(=O)O           pKa         6.27
2  O=C(O)CN(CCN(CC(=O)O)CC(=O)O)CCN(CC(=O)O)CC(=O)O           pKa         5.57
3      O=C(O)CN(CCN(CC(=O)O)CC(=O)O)CC(=O)O           pKa         2.49

Please turn your attention to the following entry.
### Prompt Look up pKa: O=C(O)CN(CCN(CC(=O)O)Cc1cccc(C(=O)O)n1)Cc1cccc(C(=O)O)n1
### Response 3.82

----------
# test_protocol: Potentiometric titration, acid dissociation constants
# Format: physicochemical
# run_conditions: aqueous 2.0 M (Na+/H+)NO3 electrolyte solution, I = 2.0 M (Na+/H+)NO3 at 25.0 °C; read-out: pKa H2L2-
readout_kind: pKa
Give bare numbers.

### Prompt Look up pKa: O=C(O)CN(CCN(CC(=O)O)Cc1cccc(C(=O)O)n1)Cc1cccc(C(=O)O)n1
### Response 5.27

----------
# test_protocol: Potentiometric titration, acid dissociation constants
# Format: physicochemical
# run_conditions: aqueous 2.0 M (Na+/H+)ClO4 electrolyte solution, I = 2.0 M (Na+/H+)ClO4 at 20.0 °C; read-out: pKa H4L species
What pKa was measured for each of the following?
Give bare numbers.

> print(dat)
                    structure.smiles.string  readout.kind  measurement
1  O=C(O)CN(CCN(CC(=O)O)CC(=O)O)CCN(CC(=O)O)CC(=O)O           pKa         4.38
2      O=C(O)CN(CCN(CC(=O)O)CC(=O)O)CC(=O)O           pKa         2.02

Lab note: each compound below needs its pKa filled in.
1. O=C(O)CN(CCN(CCN(CC(=O)O)CC(=O)O)CC(=O)O)CCN(CC(=O)O)CC(=O)O
2. O=C(O)CN(CCN(CC(=O)O)Cc1cccc(C(=O)O)n1)Cc1cccc(C(=O)O)n1

### Response
4.12
3.18

----------
# test_protocol: Potentiometric titration, acid dissociation constants
# Format: physicochemical
# run_conditions: aqueous 2.0 M (Na+/H+)NO3 electrolyte solution, I = 2.0 M (Na+/H+)NO3 at 25.0 °C; read-out: pKa H3L-
# Protocol: All potentiometric titrations were run using a Mettler Toledo T90 autotitrator equipped with an Orion Ross Semi-micro glass electrode with the junction stabilization solution changed to 5.0 M NaCl to prevent precipitation with perchlorate media. All titrations were performed under a hydrated nitrogen atmosphere. […] Acid dissociation constants of H4octapa in perchlorate electrolyte medium were also determined by titrating in reverse (basic titrand, acidic titrant) to alleviate the solubility concerns. […]
readout_kind: pKa
Give bare numbers.

### Prompt Look up pKa: O=C(O)CN(CCN(CC(=O)O)Cc1cccc(C(=O)O)n1)Cc1cccc(C(=O)O)n1
### Response 3.63

----------
What pKa was measured for each of the following?
# test_protocol: Potentiometric titration, acid dissociation constants
# Assay type: physicochemical
# run_conditions: aqueous 2.0 M (Na+/H+)ClO4 electrolyte solution, I = 2.0 M (Na+/H+)ClO4 (Table 2); read-out: pKa H3L-
Answers are plain numbers.

> print(dat)
                                   compound  readout.kind  measurement
1  O=C(O)CN(CCN(CC(=O)O)CC(=O)O)CC(=O)O [H4edta]           pKa         2.48

Please turn your attention to the following entry.
### Prompt Look up pKa: O=C(O)CN(Cc1cc(-c2cn(CCOCCOCCO)nn2)cc(CN(CC(=O)O)Cc2cccc(C(=O)O)n2)n1)Cc1cccc(C(=O)O)n1 [H4pypa-peg]
### Response 3.92

----------
What pKa was measured for each of the following?
# test_protocol: Potentiometric titration, acid dissociation constants
# Assay type: physicochemical
# run_conditions: aqueous 2.0 M (Na+/H+)ClO4 electrolyte solution, I = 2.0 M (Na+/H+)ClO4 (Table 2); read-out: pKa HL3-
Give bare numbers.

> print(dat)
                    structure.smiles.string  measurement
1  O=C(O)CN(Cc1cc(-c2cn(CCOCCOCCO)nn2)cc(CN(CC(=O)O)Cc2cccc(C(=O)O)n2)n1)Cc1cccc(C(=O)O)n1         7.44

### Prompt Look up pKa: O=C(O)CN(CCN(CC(=O)O)CC(=O)O)CC(=O)O
### Response 8.71

----------
# test_protocol: Potentiometric titration, acid dissociation constants
# Type: physicochemical
# run_conditions: aqueous 2.0 M (Na+/H+)NO3 electrolyte solution, I = 2.0 M (Na+/H+)NO3 at 25.0 °C; read-out: pKa HL3-
readout_kind: pKa
Give bare numbers.

### Prompt Look up pKa: O=C(O)CN(CCN(CC(=O)O)Cc1cccc(C(=O)O)n1)Cc1cccc(C(=O)O)n1
### Response 8.16

----------
# test_protocol: Potentiometric titration, acid dissociation constants
# Type: physicochemical
# run_conditions: aqueous 2.0 M (Na+/H+)NO3 electrolyte solution, I = 2.0 M (Na+/H+)NO3 at 25.0 °C; read-out: pKa H4L(aq)
readout_kind: pKa
One number for each entry.

### Prompt Look up pKa: O=C(O)CN(CCN(CC(=O)O)Cc1cccc(C(=O)O)n1)Cc1cccc(C(=O)O)n1
### Response 3

----------
# test_protocol: Spectrophotometric titration
# Format: binding
# run_conditions: spectrophotometrically determined in 2.0 M (Na+/H+)ClO4, 20 °C
readout_kind: logβ101 (ML), Nd

These recorded examples may help you get a feel for the data.
> print(dat)
                                   molecule  measurement
1  O=C(O)CN(CCN(CC(=O)O)CC(=O)O)CCN(CC(=O)O)CC(=O)O [H5dtpa]     20.23(2)
2  O=C(O)CN(CCN(CCN(CC(=O)O)CC(=O)O)CC(=O)O)CCN(CC(=O)O)CC(=O)O [H6ttha]     21.90(7)
3  O=C(O)CN(Cc1cc(-c2cn(CCOCCOCCO)nn2)cc(CN(CC(=O)O)Cc2cccc(C(=O)O)n2)n1)Cc1cccc(C(=O)O)n1 [H4pypa-peg]    18.15 (6)

Please turn your attention to the following entry.
### Prompt Look up logβ101 (ML), Nd: O=C(O)CN(CCN(CC(=O)O)CC(=O)O)CC(=O)O [H4edta]
### Response 14.66(1)

----------
What pKa was measured for each of the following?
# test_protocol: Potentiometric titration, acid dissociation constants
# Type: physicochemical
# run_conditions: aqueous 2.0 M (Na+/H+)ClO4 electrolyte solution, I = 2.0 M (Na+/H+)ClO4 (Table 2); read-out: pKa H2L2-

> print(dat)
                                   compound  readout.kind  measurement
1  O=C(O)CN(CCN(CC(=O)O)CC(=O)O)CC(=O)O [H4edta]           pKa         6.23

Please turn your attention to the following entry.
### Prompt Look up pKa: O=C(O)CN(Cc1cc(-c2cn(CCOCCOCCO)nn2)cc(CN(CC(=O)O)Cc2cccc(C(=O)O)n2)n1)Cc1cccc(C(=O)O)n1 [H4pypa-peg]
### Response 6.45
